# System: human MET
# Measurement Protocol: MET biochemical kinase assay
# Parameters: concentration or dose not given beside the values
Readout Label: Met Kinase % Inhibition

Looking up Cc1c(Br)ccc2c1C(=Cc1coc3ccc([N+](=O)[O-])cc3c1=O)C(=O)N2 , I see its Met Kinase % Inhibition listed as −11.6%

Looking up O=C1Nc2ccc(S(=O)(=O)Nc3ccc(C(F)(F)F)cc3)cc2C1=Cc1cc2c(cc1Cl)OCO2 , I see its Met Kinase % Inhibition listed as −2.2%

Looking up COc1c(C(C)C)cc(C=C2C(=O)Nc3ccc(S(=O)(=O)Nc4ccc(C(F)(F)F)cc4)cc32)cc1C(C)C , I see its Met Kinase % Inhibition listed as 3.9%

Looking up CCOC(=O)c1c(C)[nH]c(C=C2C(=O)Nc3ccc(S(=O)(=O)NC)cc32)c1C , I see its Met Kinase % Inhibition listed as 32.0%

Looking up CNS(=O)(=O)c1ccc2c(c1)C(=Cc1ccc(OC)cc1)C(=O)N2 , I see its Met Kinase % Inhibition listed as 9.6%

Looking up COc1cc(C=C2C(=O)Nc3ccc(S(=O)(=O)N4CCOCC4)cc32)cc(OC)c1OC , I see its Met Kinase % Inhibition listed as 36.0%

Looking up O=C1Nc2ccc(I)cc2C1=Cc1cc2c3c(c1O)CCCN3CCC2 , I see its Met Kinase % Inhibition listed as 45.6%

Looking up COc1ccc(Br)c(C=C2C(=O)Nc3c(Br)cc(Br)cc32)c1O , I see its Met Kinase % Inhibition listed as 68.0%

* * *

# Test system: human MET
# Measurement Protocol: MET biochemical kinase assay
# Set-up: concentration or dose not given beside the values
Consider the following molecules; for each one, report its Met Kinase % Inhibition.
The response must be a number in % with no trailing unit.

Looking up COc1ccc2[nH]cc(C=C3C(=O)Nc4ccc(S(=O)(=O)Nc5ccc(C(F)(F)F)cc5)cc43)c2c1 [10731/E09] , I see its Met Kinase % Inhibition listed as 27.0

Looking up CC(=O)n1cc(C=C2C(=O)Nc3ccc(S(=O)(=O)Nc4ccc(C(F)(F)F)cc4)cc32)c2ccccc21 [10730/E05] , I see its Met Kinase % Inhibition listed as 49.0

Looking up CNS(=O)(=O)c1ccc2c(c1)C(=Cc1ccc(Cl)c([N+](=O)[O-])c1)C(=O)N2 [10718/D08] , I see its Met Kinase % Inhibition listed as 2.3

Looking up CCOc1cccc(C=C2C(=O)Nc3ccc(S(=O)(=O)NC)cc32)c1O [10734/D02] , I see its Met Kinase % Inhibition listed as 46.0

* * *

# Experimental Target: FLK-1 receptor (Mus musculus)
# Construct: expressed in transfected cells; host or cells: NIH3T3 C7#3 (FLK-1/NIH3T3)
# Measurement Protocol: FLK-1 ELISA (catalytic activity of the FLK-1 receptor in FLK-1/NIH3T3 cells)
# Format: cell-based
# Run Parameters: Table 7; read-out: Activity 1C50 FLK Kinase
Readout Label: pIC50
// pIC50 here means minus log10 of the molar concentration (mol/L)

Tested on FLK-1 receptor (Mus musculus): O=C1Nc2ccc(Br)cc2/C1=C\c1cc2c([nH]1)CCCC2 . Observed pIC50: 4.71

Tested on FLK-1 receptor (Mus musculus): O=C1Nc2ccccc2/C1=C\c1cc2c([nH]1)CCCC2 . Observed pIC50: 5.77

* * *

# Tested on: human MET
# Measurement Protocol: MET biochemical kinase assay
# Design: concentration or dose not given beside the values
Consider the following compounds; for each one, report its Met Kinase % Inhibition.
The response must be a number in % with no trailing unit.

Looking up Cc1cc(C=C2C(=O)Nc3ccc(I)cc32)sc1C , I see its Met Kinase % Inhibition listed as 93.1

Looking up Cc1c(Br)ccc2c1C(=Cc1cc(C(C)(C)C)cc(C(C)(C)C)c1O)C(=O)N2 , I see its Met Kinase % Inhibition listed as 47.0

Looking up Cn1c(C=C2C(=O)Nc3ccc(CCCl)cc32)nc2ccccc21 , I see its Met Kinase % Inhibition listed as 7.9

Looking up CCN(CC)c1ccc(C=C2C(=O)Nc3ccc(S(=O)(=O)NC)cc32)c(O)c1 , I see its Met Kinase % Inhibition listed as 55.0

Looking up CC(C)(C)c1cc(C=C2C(=O)Nc3ccc(S(=O)(=O)Nc4ccc(C(F)(F)F)cc4)cc32)ccc1O , I see its Met Kinase % Inhibition listed as 0.7

Looking up Cc1ccc(C=C2C(=O)Nc3ccc(I)cc32)s1 , I see its Met Kinase % Inhibition listed as 90.0

Looking up CNS(=O)(=O)c1ccc2c(c1)C(=Cc1ccc(Cl)s1)C(=O)N2 , I see its Met Kinase % Inhibition listed as −6.8

Looking up COc1c(I)cc(C=C2C(=O)Nc3ccc(S(=O)(=O)N4CCOCC4)cc32)cc1C(C)(C)C , I see its Met Kinase % Inhibition listed as 65.1

Looking up O=C1Nc2ccc(S(=O)(=O)Nc3ccc(C(F)(F)F)cc3)cc2C1=Cc1cc(O)c2c(c1O)CCCC2 , I see its Met Kinase % Inhibition listed as 84.0

Looking up O=C1Nc2ccc(CCCl)cc2C1=Cc1ccccc1O , I see its Met Kinase % Inhibition listed as 37.0

Looking up CNS(=O)(=O)c1ccc2c(c1)C(=Cc1ccc(F)cc1C(F)(F)F)C(=O)N2 , I see its Met Kinase % Inhibition listed as 12.8

Looking up CNS(=O)(=O)c1ccc2c(c1)C(=Cc1ccc(O)c(C)c1O)C(=O)N2 , I see its Met Kinase % Inhibition listed as 9.9

Looking up Cc1c(Br)ccc2c1C(=Cc1ccco1)C(=O)N2 , I see its Met Kinase % Inhibition listed as 4.4

Looking up O=C1Nc2ccc(I)cc2C1=Cc1cc([N+](=O)[O-])cc(CCl)c1O , I see its Met Kinase % Inhibition listed as 92.4

Looking up N#Cc1cccc(C=C2C(=O)Nc3ccc(S(=O)(=O)Nc4ccc(C(F)(F)F)cc4)cc32)c1 , I see its Met Kinase % Inhibition listed as 27.0

Looking up O=C1Nc2ccc(CCCl)cc2C1=Cc1csc([N+](=O)[O-])c1 , I see its Met Kinase % Inhibition listed as 51.0

Looking up Cc1c(Br)ccc2c1C(=Cc1sc3scc(C)c3c1C)C(=O)N2 , I see its Met Kinase % Inhibition listed as 4.9

Looking up O=C1Nc2ccc(S(=O)(=O)Nc3ccc(C(F)(F)F)cc3)cc2C1=Cc1ccncc1 , I see its Met Kinase % Inhibition listed as 85.0

* * *

Consider the following compounds; for each one, report its Met Kinase % Inhibition.
# Test system: human MET
# Measurement Protocol: MET biochemical kinase assay
# Set-up: concentration or dose not given beside the values
The response must be a number in % with no trailing unit.

Looking up O=C1Nc2c(Br)cc(Br)cc2C1=Cc1cc2ccccc2nc1Cl [10730/A08] , I see its Met Kinase % Inhibition listed as 69.0

Looking up COC(=O)Cc1c(Cl)[nH]c(C=C2C(=O)Nc3ccc(CCCl)cc32)c1C(=O)OC [10725/G09] , I see its Met Kinase % Inhibition listed as 4.7

Looking up O=C1Nc2ccc(S(=O)(=O)Nc3ccc(C(F)(F)F)cc3)cc2C1=Cc1cccn1-c1ccc(Cl)cc1 [10724/E09] , I see its Met Kinase % Inhibition listed as 27.0

Looking up CCOc1ccc(C=C2C(=O)Nc3ccc(I)cc32)cc1OC [10719/B02] , I see its Met Kinase % Inhibition listed as 47.0

Looking up COc1cc(OC)c(C=C2C(=O)Nc3c(Br)cc(Br)cc32)c(OC)c1 [10719/A06] , I see its Met Kinase % Inhibition listed as −7.0

Looking up Cc1cc(C=C2C(=O)Nc3ccc(CCCl)cc32)cc(C)c1OCc1ccccc1 [10733/G07] , I see its Met Kinase % Inhibition listed as 8.5

Looking up O=C1Nc2ccc(S(=O)(=O)Nc3ccc(C(F)(F)F)cc3)cc2C1=Cc1ccc(Br)o1 [10726/E05] , I see its Met Kinase % Inhibition listed as 71.0

Looking up CSc1ccc(C=C2C(=O)Nc3ccc(S(=O)(=O)Nc4ccc(C(F)(F)F)cc4)cc32)cc1 [10729/E04] , I see its Met Kinase % Inhibition listed as 9.8

* * *

# Experimental Target: FLK-1 receptor (Mus musculus, UniProt P35918)
# Construct: expressed in transfected cells; host or cells: NIH3T3 C7#3 (FLK-1/NIH3T3)
# Sequence (P35918 20-1345): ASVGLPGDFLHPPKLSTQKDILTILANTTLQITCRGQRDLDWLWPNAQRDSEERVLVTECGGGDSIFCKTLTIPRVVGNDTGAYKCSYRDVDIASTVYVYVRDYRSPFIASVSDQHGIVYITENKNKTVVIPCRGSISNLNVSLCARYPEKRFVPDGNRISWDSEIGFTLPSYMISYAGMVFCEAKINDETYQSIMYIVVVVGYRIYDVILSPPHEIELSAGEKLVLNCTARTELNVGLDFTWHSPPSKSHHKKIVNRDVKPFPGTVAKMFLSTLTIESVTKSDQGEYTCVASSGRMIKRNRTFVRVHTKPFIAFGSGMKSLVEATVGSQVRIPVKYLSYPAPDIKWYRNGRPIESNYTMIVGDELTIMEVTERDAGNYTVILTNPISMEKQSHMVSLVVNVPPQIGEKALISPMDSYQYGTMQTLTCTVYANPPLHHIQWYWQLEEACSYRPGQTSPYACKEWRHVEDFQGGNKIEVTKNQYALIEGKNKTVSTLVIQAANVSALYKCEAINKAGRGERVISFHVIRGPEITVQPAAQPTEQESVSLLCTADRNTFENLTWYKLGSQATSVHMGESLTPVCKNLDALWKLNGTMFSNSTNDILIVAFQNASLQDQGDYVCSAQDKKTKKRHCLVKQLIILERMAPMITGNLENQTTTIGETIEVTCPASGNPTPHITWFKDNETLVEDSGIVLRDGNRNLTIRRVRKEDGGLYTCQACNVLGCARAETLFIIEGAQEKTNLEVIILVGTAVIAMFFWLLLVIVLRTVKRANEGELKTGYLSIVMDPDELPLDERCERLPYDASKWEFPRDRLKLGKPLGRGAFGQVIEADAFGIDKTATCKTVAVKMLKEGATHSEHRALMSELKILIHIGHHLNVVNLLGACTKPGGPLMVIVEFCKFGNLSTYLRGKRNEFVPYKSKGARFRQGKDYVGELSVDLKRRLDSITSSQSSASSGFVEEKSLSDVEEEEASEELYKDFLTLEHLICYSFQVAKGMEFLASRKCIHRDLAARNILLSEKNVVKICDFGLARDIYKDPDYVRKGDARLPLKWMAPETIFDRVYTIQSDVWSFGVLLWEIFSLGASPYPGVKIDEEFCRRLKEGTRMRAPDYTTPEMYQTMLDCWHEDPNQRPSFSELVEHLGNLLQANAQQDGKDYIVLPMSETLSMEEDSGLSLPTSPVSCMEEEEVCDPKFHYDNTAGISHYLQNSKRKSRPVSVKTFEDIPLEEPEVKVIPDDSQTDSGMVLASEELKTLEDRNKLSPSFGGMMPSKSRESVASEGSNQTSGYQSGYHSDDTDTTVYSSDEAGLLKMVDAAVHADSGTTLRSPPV
# Measurement Protocol: FLK-1 ELISA (catalytic activity of the FLK-1 receptor in FLK-1/NIH3T3 cells)
# Format: cell-based
# Parameters: concentration or dose not given beside the values
Consider the following compounds; for each one, report its Flk Kinase % Inhibition.
The response must be a number in % with no trailing unit.

Looking up Cc1ccc(C=C2C(=O)Nc3c(Br)cc(Br)cc32)o1 , I see its Flk Kinase % Inhibition listed as −8.6

Looking up O=C1Nc2ccc(I)cc2C1=Cc1csc([N+](=O)[O-])c1 , I see its Flk Kinase % Inhibition listed as 8.7

Looking up O=C1Nc2ccc(I)cc2C1=Cc1ccc([N+](=O)[O-])c(O)c1 , I see its Flk Kinase % Inhibition listed as −20.5

Looking up CN(C)c1ccc(C=C2C(=O)Nc3ccc(I)cc32)c2ccccc12 , I see its Flk Kinase % Inhibition listed as −6.2

Looking up O=C1Nc2ccc(I)cc2C1=Cc1ccc2c(c1)Cc1ccccc1-2 , I see its Flk Kinase % Inhibition listed as 4.7

Looking up Cn1c(C=C2C(=O)Nc3ccc(I)cc32)nc2ccccc21 , I see its Flk Kinase % Inhibition listed as 19.5

Looking up Cn1cc(Cl)c(C=C2C(=O)Nc3ccc(I)cc32)n1 , I see its Flk Kinase % Inhibition listed as 19.9

Looking up Cc1cc(C=C2C(=O)Nc3ccc(I)cc32)sc1C , I see its Flk Kinase % Inhibition listed as 13.8

Looking up O=C1Nc2ccc(I)cc2C1=Cc1ccc(Cl)s1 , I see its Flk Kinase % Inhibition listed as 11.2

Recorded values, source patent US7202265B2.
